Hello, the source for this data is the emibetuzumab library of Makowski et al. (2022), in case you need it.

B1: VH:VL chains; a variant is named by its letters at X, in order (parent)
chain 1: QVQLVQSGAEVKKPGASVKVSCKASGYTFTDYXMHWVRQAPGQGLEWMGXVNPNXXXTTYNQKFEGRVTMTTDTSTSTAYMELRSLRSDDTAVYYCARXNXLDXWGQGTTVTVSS
chain 2: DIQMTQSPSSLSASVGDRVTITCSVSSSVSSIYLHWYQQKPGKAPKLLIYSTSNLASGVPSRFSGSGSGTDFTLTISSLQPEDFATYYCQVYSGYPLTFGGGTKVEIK

Variants of: B1
Assay: yeast display scFab, FACS + sequencing
Conditions: with MET
Some of the results follow. No count for the full screen is at hand.
measured attribute: antigen binding call

Field: example entries. Status: answers known.
• YRGKGSGS = binds
• VRGRDAVS = binds
• DARGGAVY = no binding
• YKRRDAVY = no binding
• YRGKGDGS = no binding

### Prompt Consider the variant SREAADAV and give its measured antigen binding call.
### Response no binding

### Prompt Consider the variant VRGRDDSA and give its measured antigen binding call.
### Response no binding

### Prompt Consider the variant DRGGDAVA and give its measured antigen binding call.
### Response no binding

### Prompt Consider the variant YRGKGSGF and give its measured antigen binding call.
### Response binds

### Prompt Consider the variant VRGGDDGS and give its measured antigen binding call.
### Response no binding

### Prompt Consider the variant FARETFGV and give its measured antigen binding call.
### Response no binding
